Target: Muscarinic acetylcholine receptor M4 (Homo sapiens)
Test: potency of ACh potentiation at hM4 – cell-based, calcium mobilization, human receptor, SAR follow-up (AID 623938)
Details: hM4 cells, PAM with EC20 ACh
quantity.name: EC50

>>> result("Cc1nc2sc(C(=O)NCc3ccccc3)c(N)c2c(C)c1Cl")
"133 nM"
>>> result("Cc1nc2sc(C(=O)NCc3ccnnc3)c(N)c2c(C)c1Cl")
"222 nM"
>>> result("COc1ccc(C)c2sc(NC(=O)NC3CCCC3)nc12")
"3580 nM"
>>> result("COc1ccc(C)c2sc(NC(=O)c3ccncc3)nc12")
"1400 nM"
>>> result("COc1ccc(C)c2sc(NC(=O)C(C)C)nc12")
"> 10000 nM"
>>> result("Cc1nc2sc(C(=O)NC(C)c3ccccn3)c(N)c2c(C)c1Cl (stereo not drawn)")
"1410 nM"
>>> result("Cc1nc2sc(C(=O)NCCc3ccncc3)c(N)c2c(C)c1Cl")
"211 nM"
>>> result("COc1ccc(C)c2sc(NC(=O)C3=COCCO3)nc12")
"1900 nM"
>>> result("COc1cccc2sc(NC(=O)c3ccncc3)nc12")
"2300 nM"
>>> result("Cc1nc2sc(C(=O)NC3COC3)c(N)c2c(C)c1Cl")
"906 nM"
>>> result("Cc1nc2sc(C(=O)NCc3ccncn3)c(N)c2c(C)c1Cl")
"173 nM"
>>> result("Cc1nc2sc(C(=O)NCc3cccc(F)c3F)c(N)c2c(C)c1Cl")
"120 nM"
>>> result("Cc1nc2sc(C(=O)NCc3nccs3)c(N)c2c(C)c1Cl")
"174 nM"

Measured values drawn from PubChem BioAssay AID623938 for this set.
